Assign IC50 to each entry below.
Test system: human umbilical venous endothelial cells
Assay: Inhibition of proliferation of human umbilical venous endothelial cells (MTT)
Assay type: cell-based
Conditions: Endothelial cell, 72 h, rFGF 2 ng/ml, 3 days of incubation, OD₅₉₀, read-out: IC₅₀
Express the result in µg/mL but write the number alone.

The molecule listed as CC1=C(C)C(=O)C(C(CCC(=O)NO)c2ccccc2)=C(C)C1=O (centres unmarked) shows IC50 equal to 10

The recorded IC50 for CC1=C(C)C(=O)C(C(CCCCCC(=O)NO)c2ccc(Cl)cc2)=C(C)C1=O (centres unmarked) is 1.25

Data point: CC1=C(C(CCCCC(=O)NO)c2ccccc2)C(=O)c2ccccc2C1=O (centres unmarked) ; IC50 = 0.08

Measured IC50 of CC1=C(C)C(=O)C(C(CCCCCC(=O)NO)c2ccc(C)cc2)=C(C)C1=O (centres unmarked) : 1.25

Entry CC1=C(C)C(=O)C(C(CCCCCC(=O)NO)c2ccccc2)=C(C)C1=O (centres unmarked) , IC50 reported as 0.63

Please fill in: IC50 reported for CC1=C(C)C(=O)C(C(CCCCC(=O)NO)c2ccc(F)cc2)=C(C)C1=O (centres unmarked) = 1.25

Data point: COc1ccc(C(CCCCC(=O)NO)C2=C(C)C(=O)C(C)=C(C)C2=O)cc1 (centres unmarked) ; IC50 = 0.63

# molecule COC1=C(OC)C(=O)C(C(CCCC(=O)NO)c2ccccc2)=C(C)C1=O (centres unmarked) ; its IC50 = 20

IC50 in this record for CC1=C(C)C(=O)C(C(CCCCCC(=O)NO)c2ccc(F)cc2)=C(C)C1=O (centres unmarked) : 1.25

Consider COc1ccc(C(CCCCCC(=O)NO)C2=C(C)C(=O)C(C)=C(C)C2=O)cc1 (centres unmarked) . Its measured IC50 is 0.63

Given item CC1=C(C(CCCC(=O)NO)c2ccccc2)C(=O)c2ccccc2C1=O (centres unmarked) , the value recorded as its IC50 is 5

Please fill in: IC50 reported for CC1=C(C)C(=O)C(C(CCCCCCC(=O)NO)c2ccccc2)=C(C)C1=O (centres unmarked) = 25

So for COC1=C(OC)C(=O)C(C(CCCCCC(=O)NO)c2ccccc2)=C(C)C1=O (centres unmarked) , the logged IC50 turned out to be 1.25

IC50 measured on CC1=C(C)C(=O)C(C(CCCCC(=O)NO)c2ccccc2)=C(C)C1=O (centres unmarked) = 0.63

====

Target: 5-lipoxygenase from guinea pig polymorphonuclear leukocytes (Cavia porcellus)
Construct: from guinea pig peritoneal macrophage; from tissue
Sequence (A0A286X958 1-674): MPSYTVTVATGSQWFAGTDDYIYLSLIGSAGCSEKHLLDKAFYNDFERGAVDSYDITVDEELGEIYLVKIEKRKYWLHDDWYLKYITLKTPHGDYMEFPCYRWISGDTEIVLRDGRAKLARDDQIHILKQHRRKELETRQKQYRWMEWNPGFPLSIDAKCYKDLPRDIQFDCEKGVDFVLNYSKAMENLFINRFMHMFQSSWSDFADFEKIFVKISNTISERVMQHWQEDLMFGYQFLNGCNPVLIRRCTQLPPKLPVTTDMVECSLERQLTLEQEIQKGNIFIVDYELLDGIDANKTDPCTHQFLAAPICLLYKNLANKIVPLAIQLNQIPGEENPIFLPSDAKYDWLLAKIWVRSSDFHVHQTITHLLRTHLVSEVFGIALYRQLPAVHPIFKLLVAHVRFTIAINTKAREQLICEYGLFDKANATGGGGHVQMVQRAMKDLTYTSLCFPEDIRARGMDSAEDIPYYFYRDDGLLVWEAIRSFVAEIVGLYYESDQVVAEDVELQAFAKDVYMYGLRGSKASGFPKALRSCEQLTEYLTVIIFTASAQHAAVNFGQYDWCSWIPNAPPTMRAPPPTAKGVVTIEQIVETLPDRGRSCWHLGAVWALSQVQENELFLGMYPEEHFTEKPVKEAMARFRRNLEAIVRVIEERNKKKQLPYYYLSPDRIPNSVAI
Experiment: Inhibition of 5-lipoxygenase
Type: biochemical
Details: 10⁻⁵ M; 25µM [1-¹⁴C]arachidonic acid as substrate, 25°C
test.readout: Inhibitory activity (%)
Express your answer in %, writing the number without its unit.

Quick note, Inhibitory activity (%) for CC1=C(C)C(=O)C(C(CCCCCC(=O)NO)c2ccc(F)cc2)=C(C)C1=O (stereo not shown) landed at 79.3

Input COc1ccc(C(CCCCCC(=O)NO)C2=C(C)C(=O)C(C)=C(C)C2=O)cc1 (stereo not shown) . Output Inhibitory activity (%): 83.8

The recorded Inhibitory activity (%) for entry CC1=C(C)C(=O)C(C(CCCCCC(=O)NO)c2ccccc2)=C(C)C1=O (stereo not shown) equals 74.6

Lookup result for CC1=C(C(CCCCCC(=O)NO)c2ccc(F)cc2)C(=O)c2ccccc2C1=O (stereo not shown) ; measured Inhibitory activity (%): 89.7
